B1: H2-Kb / Ed9 (parent complex)
chain 1: AQSVTQPDARVTVSEGASLQLRCKYSYFGTPYLFWYVQYPRQGLQLLLKYYPGDPVVQGVNGFEAEFSKSNSSFHLRKASVHWSDWAVYFCAVSITGGYKVVFGSGTRLLVSP
chain 2: DSGVVQSPRHIIKEKGGRSVLTCIPISGHSNVVWYQQTLGKELKFLIQHYEKVERDKGFLPSRFSVQQFDDYHSEMNMSALELEDSAMYFCASSPRQSDYTFGSGTRLLVI
chain 3: not shown
chain 4: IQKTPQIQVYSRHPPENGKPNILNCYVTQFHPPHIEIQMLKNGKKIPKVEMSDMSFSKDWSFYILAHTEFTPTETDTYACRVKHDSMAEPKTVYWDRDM
chain 5: SIINFEKL

variants of: B1; experiment: % of reporter cells activated (NFAT-GFP), raw; note: test concentration or dose not given here
TEST_READOUT: ratio to parent

Example results:
* chain 5 I3M | 0.914
* chain 5 F5M | 1.32

Problem: Report ratio to parent, nothing else, for this variant: chain 5 I2N
Result: 0.905

Problem: Report ratio to parent, nothing else, for this variant: chain 5 I3L
Result: 1.03
